- experimental protocol: Pharmacokinetics of clobazam in plasma (LC-MS/MS)
- Format: in vivo
- measurement setup: human, po, 20 mg, clobazam 20 mg oral, subgroup (n = 8) with peak plasma level below 180 minutes and at least 200 µg/ml, mean (SD)
test readout: Tmax (h)
Response body: numeric value in h, unit text excluded.

Fill in the blank: the reported Tmax of CN1C(=O)CC(=O)N(c2ccccc2)c2cc(Cl)ccc21 is ____.
1.64
